- Test system: rat liver microsomes
- TEST_METHOD_NOTES: Inhibition of ferrous ion-stimulated formation of maliondialdehyde (lipid peroxidation) in rat liver microsomes
- Format: biochemical
- TEST_CONDITIONS: ferrous sulfate 1 mM, 37° C. for 1 hour, test compound in DMSO, read-out: IC50, inhibition of production of MDA (as measured by the MDA-TBA adduct)
Measured IC50 accompanies every entry in the list below.

| SMILES_TEXT | IC50, µM |
| --- | --- |
| Cc1c(C)c2c(c(C)c1O)CC[C@@](C)(CCC[C@H](C)CCC[C@H](C)CCCC(C)C)O2 | 307 |
| Cc1c(C)c2c(c(C)c1OC(=O)CCCC[C@@H]1CCSS1)CC[C@@](C)(CC[C@H](C)CCC[C@H](C)CCCC(C)C)O2 | 266 |
